Assay: Rat pilot single-dose oral pharmacokinetic study with Compound EB
Assay type: in vivo
Details: Sprague-Dawley, rat; male rats, 100 mg/kg single oral gavage, plasma

# structureSmilesString, Cmax, µg/mL
data = [
    ("Cc1cccc(C)c1COc1cccc(-c2nnn[nH]2)c1", 108),
]

----------
Assay: Mouse oral single-dose pharmacokinetic study with Compound EB
Format: in vivo
Conditions: mouse; male mice, 100 mg/kg single oral gavage, plasma

# structureSmilesString, resultUnits, Cmax
records = [
    ("Cc1cccc(C)c1COc1cccc(-c2nnn[nH]2)c1", "µg/mL", 210),
]

----------
Biological target: human URAT1 (Homo sapiens (Human))
Sequence (Q96S37 whole entry): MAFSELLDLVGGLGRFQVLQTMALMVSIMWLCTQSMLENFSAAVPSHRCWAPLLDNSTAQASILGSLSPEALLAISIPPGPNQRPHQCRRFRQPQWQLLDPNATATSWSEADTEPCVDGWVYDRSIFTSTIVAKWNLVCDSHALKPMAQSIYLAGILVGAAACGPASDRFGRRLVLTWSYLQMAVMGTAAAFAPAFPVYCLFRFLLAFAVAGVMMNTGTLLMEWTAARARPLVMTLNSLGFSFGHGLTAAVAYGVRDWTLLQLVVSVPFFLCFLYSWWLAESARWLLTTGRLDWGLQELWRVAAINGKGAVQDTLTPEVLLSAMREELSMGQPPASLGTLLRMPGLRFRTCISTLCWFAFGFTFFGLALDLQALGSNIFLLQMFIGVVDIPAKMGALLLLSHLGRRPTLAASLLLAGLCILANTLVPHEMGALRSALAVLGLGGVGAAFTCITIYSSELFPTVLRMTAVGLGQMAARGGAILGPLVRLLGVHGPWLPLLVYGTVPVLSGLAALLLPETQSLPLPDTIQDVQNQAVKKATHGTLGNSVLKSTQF
Experiment: URAT1 inhibition assay: [8-14C] urate uptake in hURAT1-HEK cells
Assay type: cell-based
Settings: 10 μM; hURAT1-HEK cells
// label = 1 (yes) if inhibition at 10 µM is not less than 90%, otherwise 0 (no)

# structureSmilesString, measuredTarget, assignedClass
data = [
    ("Cc1cccc(C)c1COc1cccc(Cc2nnn[nH]2)c1C", "human URAT1 (Homo sapiens (Human))", "0 (no)"),
    ("Cc1cccc(C)c1COc1cccc(Cc2nnn[nH]2)c1", "human URAT1 (Homo sapiens (Human))", "1 (yes)"),
    ("COc1ccc(Cc2nnn[nH]2)cc1OCc1c(C)cccc1C", "human URAT1 (Homo sapiens (Human))", "1 (yes)"),
    ("COc1c(Cc2nnn[nH]2)cccc1OCc1c(C)cccc1C", "human URAT1 (Homo sapiens (Human))", "0 (no)"),
    ("Fc1cccc(F)c1COc1ccc(Cc2nnn[nH]2)cc1", "human URAT1 (Homo sapiens (Human))", "0 (no)"),
    ("Cc1ccc(Cc2nnn[nH]2)cc1OCc1c(C)cccc1C", "human URAT1 (Homo sapiens (Human))", "1 (yes)"),
]
